- Run conditions: buffer; pH 7.4; 200.0 µM
Test readout: solubility kinetic (µg/mL)
Provide the reading as a plain figure in µg/mL.

Enquiry: Fill in: solubility kinetic of CC(C)CCN1CCN(Cc2cc3ccccc3[nH]2)CC1CCO (centres undefined) is ___
Return: 39.3

Enquiry: Fill in: solubility kinetic of O=C(NCc1nc(-c2ccc(C(F)(F)F)cc2)no1)c1cccs1 is ___
Return: 7.1

Enquiry: Fill in: solubility kinetic of COc1ccccc1N1CCN(c2ccc(S(=O)(=O)N3CCN(C)CC3)cn2)CC1 is ___
Return: 26.9

###

- Run conditions: buffer; pH 7.4; 200.0 µM
Test readout: solubility kinetic

// below: answered compounds
COc1ccc(CSCC(=O)Nc2ccccc2)cc1[N+](=O)[O-]: > 49.9 µg/mL
Cc1ccc(C)c(C(C)NC(=O)Cc2cccs2)c1 (centres undefined): > 41 µg/mL
NC1=NC(=Nc2cccc(S(N)(=O)=O)c2)c2ccccc21: > 45.1 µg/mL
COC(=O)c1nn(-c2cccc(C(F)(F)F)c2)ccc1=O: > 44.7 µg/mL

Enquiry: Fill in: solubility kinetic of CC(Oc1ccc(Cl)cc1Cl)C(=O)Nc1ccc(OCC(=O)O)cc1 (centres undefined) is ___
Return: > 57.6 µg/mL

Enquiry: Fill in: solubility kinetic of Cc1ccc(S(=O)(=O)NCCC(=O)NC2CCCCC2)cc1 is ___
Return: > 48.7 µg/mL

Enquiry: Fill in: solubility kinetic of Cc1ccc(NC(=O)C2CCCN2C(=O)Oc2ccccc2)c(C)c1 (centres undefined) is ___
Return: > 50.8 µg/mL

Enquiry: Fill in: solubility kinetic of C=CCn1c(=S)sc2c(=O)[nH]c(C)nc21 is ___
Return: > 35.9 µg/mL

Enquiry: Fill in: solubility kinetic of Cc1ccc2ccccc2c1NC(=O)c1ccco1 is ___
Return: > 37.7 µg/mL

Enquiry: Fill in: solubility kinetic of Cc1nn(-c2ccccc2)c2[nH]c(=O)cc(C(F)F)c12 is ___
Return: > 41.3 µg/mL

Enquiry: Fill in: solubility kinetic of O=C(NCCS(=O)(=O)N1CCCCC1)c1ccccc1 is ___
Return: > 44.5 µg/mL

###

- Run conditions: buffer; pH 7.4; 200.0 µM
Test readout: solubility kinetic

Enquiry: Fill in: solubility kinetic of Cl.N=C(N)SCc1ccc(O)c([N+](=O)[O-])c1 is ___
Return: > 39.6 µg/mL

Enquiry: Fill in: solubility kinetic of Cc1cccc(NC(=S)N2CCCCCC2)c1C is ___
Return: > 39.4 µg/mL

Enquiry: Fill in: solubility kinetic of COc1ccccc1CNC(=O)COC(=O)c1ccco1 is ___
Return: > 43.4 µg/mL

Enquiry: Fill in: solubility kinetic of COc1cc([N+](=O)[O-])ccc1N1C(=O)CC(Sc2nccc(C)n2)C1=O (stereo unspecified) is ___
Return: > 56.2 µg/mL

###

# solubility kinetic values compiled below
- Run conditions: buffer; pH 7.4; 200.0 µM

// below: answered compounds
Cn1cccc1C(=O)NCC(c1ccco1)N1CCCCC1 (stereo not given): > 45.2 µg/mL
CC(C)(/C=N/O)N(O)C=C1C=CC(=O)C=C1: > 33.3 µg/mL

Enquiry: Fill in: solubility kinetic of O=[N+]([O-])c1cccc(S(=O)(=O)NCc2ccncc2)c1 is ___
Return: > 44 µg/mL

Enquiry: Fill in: solubility kinetic of CC(Oc1ccccc1)C(=O)Nc1cccc([N+](=O)[O-])c1 (stereo not given) is ___
Return: > 42.9 µg/mL

Enquiry: Fill in: solubility kinetic of O=C(O)CCn1c(-c2ccccn2)nc2ccccc21 is ___
Return: > 40.1 µg/mL
